# Tested on: HBV rcDNA in HepDE19 cells
# measurement.protocol: HepDE19 assay with bDNA quantitation of HBV rcDNA
# Type: cell-based, hepatitis B virus
# stated.conditions: Hepatitis B virus, HepDE19, HepDE19 assay, inhibition of rcDNA formation, bDNA quantitation; read-out: DE-19bDNA EC50
outcome.measure: log10 EC50 (log10 of the value in nM)
Please interpret these as log10 of EC50 where EC50 is in nM.

Below are worked cases with known answers.
compound	log10 EC50
CN(C(=O)c1ccc2c(c1)c(Cl)nn2C(F)F)[C@@H]1COCc2[nH]c(=O)c3cc(F)c(F)cc3c21	1.00
CN(C(=O)c1cc2cc(F)c(C(F)F)cc2[nH]1)[C@@H]1CCCc2[nH]c(=O)c3cc(F)c(F)cc3c21	1.00
CN(C(=O)C(N)c1cccc(Cl)c1)[C@@H]1COCc2[nH]c(=O)c3cc(F)c(F)cc3c21 (single isomer, unassigned)	4.20

INPUT: Lookup: log10 EC50 / HBV rcDNA in HepDE19 cells / CN(C(=O)c1ccc(C(F)(F)F)c(F)c1)[C@@H]1COCc2[nH]c(=O)c3cc(F)c(F)cc3c21
OUTPUT: 1.00

INPUT: Write down the reported log10 EC50 of CN(C(=O)c1cc2cc(F)c(F)cc2[nH]1)[C@@H]1COCc2c1c1cc(F)c(F)cc1c(=O)n2C , test system: HBV rcDNA in HepDE19 cells.
OUTPUT: 1.00

meta.source: patent US20240228504A1
